# assay_info: protein stability index of a GFP-peptide fusion (GPS, HEK-293T) (PSI 1-6); higher = more stable;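 note: 24-mer peptide tiles fused after GFP, lentivirally expressed, FACS-sorted into six equal bins by GFP/DsRed ratio, decoded by Illumina sequencing, PSI is the read-weighted mean bin number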
# cond: treatment: MLN4924 1 uM, 8 h; c terminus: a fixed tail appended
Classify as follows. Reported protein stability index greater than or equal to 3: true. Reported protein stability index below: false.

| record_sequence | answer_label |
| --- | --- |
| GMADVGTVCDPARSCAIVEDDGLQ [ADAMTS4] | true |
| NKISRFQAPISAPEYTYGISNIDT [MFF] | true |
| LIGDFSKGYLFHTVAGKHQDLKYI [CDC25A] | false |
| EACLVAQCDALIDALNRRKAQLLA [TRIM9] | false |
| RDVVLCSLLNFLPEGVNKLKISPV [TENT5C] | false |
| GFFDVLGNDRRREWAALGNMSKED [ACBD3] | true |
| MLPGRTDNAVKNHWNSTIKRKVDT [MYBL2] | true |
| VNKVCGAACSSKRSPIIDVKNDRD [SERPINB5] | true |
| PKNGRHAWIWHDCHRHYHSMEVFT [LOXL2] | false |
| MTSLTQRSSGLVQRRTEASRNAAD [GOLPH3] | true |
| MKKGGIFSAEFLKVFIPSLFLSHV [BNIP3L] | false |
| TPTPQALYPDLSCPEGLEELLSAP [SPSB2] | true |
| ITGAYDTIKHPGGAGAEESELQAY [MCOLN1] | true |
| ADAAEDEEVDVTSVDPIAAFCSSD [RBBP5] | true |
| ETLSGDRVRLDSELRNVQDVVEDY [KRT71] | true |
| TAHMLGVRELRIAFREFDRDRDGR [CABP4] | true |
| NPPKASAAPDCTPSLEAGNPAPAA [MYCL] | true |
| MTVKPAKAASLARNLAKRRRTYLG [RSPH3] | true |
| TCVVPFDSEEEVIERANNVKYGLA [ALDH8A1] | true |
| TLLAIGTKLPENQAIQMRLVDVAC [INTS4] | false |
| RYHRFISFALYLAGFCMFVLSLVK [CDS1] | false |
| VIEAIAQITVKALPKPPGTPVVTE [PTPRD] | false |
| STRWEVIAEDGTKEIESQGSIPGF [TAF7L] | true |
| TAKNSRVVCGMFGFPGERTYNTKV [LOXL2] | false |
| AEASHYNSDLNNLLFCCQCVDVVF [RHOBTB3] | false |

====

# assay_info: protein stability index of a GFP-peptide fusion (GPS, HEK-293T) (PSI 1-6); higher = more stable
# cond: treatment: DMSO; c terminus: a fixed tail appended
readout_label: protein stability index

| record_sequence | endpoint_value |
| --- | --- |
| GPPGRSIGGAAPSLGALDLLGPAT [SERTAD1] | 3.79 |
| GKSFRQRPSLVIHLRIHTGEKPYK [ZNF449] | 2.72 |
| GNDRRREWAALGNMSKEDAMVEFV [ACBD3] | 4.11 |
| LGVVYRSLSFEDELVYADDYIMDE [ESRRG] | 2.46 |
| RRLRGEQRGQEPLGPGALHFDLRD [TCF25] | 4.24 |
| SSRDKLTEMAASSQGNFEGNFESL [FUNDC2] | 4.88 |
| YRSEDLLDVDTAAGGFQQRQGLKY [FBXO3] | 4.25 |
| NITDETPDNCEMFLNFNGMKLFLD [ZER1] | 3.62 |
| PPRGRSEAPDSLNGPLGPSEASIA [SMG5] | 5.07 |
| ARTCAKQNINAPAPATTSSWEVVR [C22orf31] | 3.04 |
| QLTKELPLSPAFFGEDGIFRHDRL [PBXIP1] | 3.07 |
| YPFQDSEPVLLFGKIRRGAYALPA [TRIB3] | 2.48 |
| QKDLIMKVENLTLKNHFQSVLEQL [TAF7L] | 2.66 |
